Recorded values, source ChEMBL document CHEMBL1141332.

# Tested on: HCT-15
# assay_comment: Cytotoxicity against human HCT15 cells
# Type: functional
# assay_context: read-out: Log TGI (converted)
measurement_type: TGI (nM)
Please reply with the bare figure in nM and do not write the unit itself.

In: Form field: reported TGI of CC(=O)O[C@@H]1C[C@H]2[C@]3(C)CC[C@H]4C(C)(C)CCC[C@]4(C)[C@H]3C[C@H](O)[C@]2(C)[C@@H](C=O)[C@@H]1C(C)=O [SCALARHERBACIN A]
Out: 2040

In: Form field: reported TGI of CC1OC(=O)[C@H]2[C@H]1[C@@H](O)C[C@H]1[C@]3(C)CC[C@H]4C(C)(C)CCC[C@]4(C)[C@H]3C[C@@H](O)[C@]21C (some centres undefined)
Out: 31600

In: Form field: reported TGI of `CC(=O)C1=CC[C@H]2[C@]3(C)CC[C@H]4C(C)(C)CCC[C@]4(C(=O)O)[C@H]3CC(=O)[C@]2(C)[C@H]1C=O`
Out: 2140

In: Form field: reported TGI of `CC(=O)O[C@H]1C[C@H]2[C@@](C)(CC[C@H]3C(C)(C)CCC[C@@]32CO)[C@@H]2CC=C(C(C)=O)[C@H](C=O)[C@@]12C`
Out: 490
